Source of measurements: ChEMBL document CHEMBL5126581

- Assay method text: Selectivity index, ratio of IC50 for cytotoxicity against HEK293 cells to IC50 for cytotoxicity against human MDA-MB-468 cells
- Assay type: toxicity, cell-based
- Run conditions: HEK293 cells versus MDA-MB-468 cells, read-out: Ratio IC50
Measure: selectivity ratio
Answer with a number only.

# annotated cases, reported selectivity ratio shown
O=S1(=O)N=C(NCc2ccc(F)cc2F)Nc2cc(Cl)ccc21	1.5
O=S1(=O)N=C(NCc2ccccc2)Nc2cc(Cl)ccc21	1.5
O=S1(=O)N=C(NCCCc2ccccc2)Nc2ccc(Cl)cc21	0.5
O=S1(=O)N=C(NCc2ccc(OC(F)(F)F)cc2)Nc2cc(Cl)ccc21	1.6
CCCCCC(=O)c1c(O)nc(OC)c(OC)c1O	3.9

Exercise: Provide measured selectivity ratio value, entry: O=S1(=O)N=C(NCc2ccccc2OC(F)(F)F)Nc2cc(Cl)ccc21
Key: 2

Exercise: Give a short answer stating reported selectivity ratio for O=S1(=O)N=C(NCc2ccc(F)cc2F)Nc2ccc(Cl)cc21 .
Key: 1.3

Exercise: // fetch selectivity ratio given entry O=S1(=O)N=C(NCCCc2ccccc2)Nc2cc(Cl)ccc21
Key: 1.2
